- TARGET OR SYSTEM: SARS-CoV-2 3CL^pro (Severe acute respiratory syndrome coronavirus 2)
ASSAY READOUT: IC50 (µM)
API: value field is a number in µM; no unit string.

## Task Missing value: IC50, SARS-CoV-2 3CL^pro (Severe acute respiratory syndrome coronavirus 2), entry COc1c(-c2ccc(O)c(O)c2)oc2cc(O)cc(O)c2c1=O [3-O-methylquercetin] . Fill in?
## Result 43.9
